Kindly supply the reported IC50 values for the records listed here.
- System: T. b. rhodesiense (STIB900, trypomastigotes)
- TEST_DESCRIPTION: in vitro activity on T. b. rhodesiense, serial dilution assay
- Format: cell-based, Trypanosoma brucei rhodesiense
- CONDITION_CONTEXT: 72 h exposure; means of two independent assays ± deviation from the mean; read-out: IC50 T. b. rhodesiense
I'd appreciate it if you included the unit after the number.

[[record]]
compound = "C=C(C)C1CCC2(C(=O)O)CCC3(C)C(CCC4C5(C)C(C(=O)O)C(OC(=O)c6ccccc6)C(C)(C)C5CCC43C)C12 [Compound 16, (1S, 3S)-3-O-benzoyl ceanothic acid]"
reported_measurement = "30.6 µM"


Next, consider the following compound.
Enquiry: Given the entry C=C(C)C1CCC2(C(=O)O)CCC3(C)C(CCC4C5(C)C(C(=O)O)C(OC(=O)c6ccccc6)C(C)(C)C5CCC43C)C12 [Compound 15, (1R, 3S)-3-O-benzoyl ceanothic acid] , report its measured IC50.
Return: 11.7 µM
